test-target: T1, QIAKLVEGKSQIQ (not fully specified)
T1 construct: member of the group m41; the text speaks of glycine substitution, the sheet prints alanine
T1 peptide: QIAKLVEGKSQIQ
assay-procedure: ELISA, immobilized peptide QIAKLVEGKSQIQ
No end group written: not given here.
property: OD450 absorbance

Solved cases below.
MM05 (antibody, IgG1, V domains shown) VH: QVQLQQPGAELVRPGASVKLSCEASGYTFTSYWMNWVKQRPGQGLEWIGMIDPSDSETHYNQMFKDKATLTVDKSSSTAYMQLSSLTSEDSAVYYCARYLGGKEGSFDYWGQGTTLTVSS VL: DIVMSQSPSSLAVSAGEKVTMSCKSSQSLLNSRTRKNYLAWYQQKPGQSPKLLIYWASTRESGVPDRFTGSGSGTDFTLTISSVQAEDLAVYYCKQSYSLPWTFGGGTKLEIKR	0.728
MM07 (antibody, V domains shown, The VH and VL begin with what look like leader peptides (MDWLW..., MVSSAQ...)) VH: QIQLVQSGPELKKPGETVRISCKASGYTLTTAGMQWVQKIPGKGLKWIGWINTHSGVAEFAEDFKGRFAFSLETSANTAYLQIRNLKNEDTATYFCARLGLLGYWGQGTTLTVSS VL: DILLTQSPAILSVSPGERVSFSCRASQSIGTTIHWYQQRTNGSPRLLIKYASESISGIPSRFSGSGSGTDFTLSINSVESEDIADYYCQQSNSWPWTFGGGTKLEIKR	0.48

Record OD450 absorbance for all entries; do not skip any.
1. MM02 (antibody, IgG2b, V domains shown) VH: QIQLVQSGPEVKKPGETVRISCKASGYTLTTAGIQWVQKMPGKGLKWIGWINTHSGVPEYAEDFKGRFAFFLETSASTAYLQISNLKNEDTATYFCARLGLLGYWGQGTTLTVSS VL: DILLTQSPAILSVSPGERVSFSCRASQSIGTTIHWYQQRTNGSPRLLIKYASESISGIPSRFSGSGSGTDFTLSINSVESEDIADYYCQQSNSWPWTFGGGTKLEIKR
2. MM14 (antibody, IgG2b, V domains shown) VH: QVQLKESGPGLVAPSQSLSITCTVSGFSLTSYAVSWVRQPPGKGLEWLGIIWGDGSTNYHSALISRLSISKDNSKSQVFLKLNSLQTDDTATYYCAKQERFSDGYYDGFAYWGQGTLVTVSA VL: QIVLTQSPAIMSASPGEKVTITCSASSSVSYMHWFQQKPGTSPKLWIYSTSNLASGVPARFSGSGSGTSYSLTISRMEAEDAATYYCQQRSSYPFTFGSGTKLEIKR
3. MM08 (antibody, IgG1, V domains shown) VH: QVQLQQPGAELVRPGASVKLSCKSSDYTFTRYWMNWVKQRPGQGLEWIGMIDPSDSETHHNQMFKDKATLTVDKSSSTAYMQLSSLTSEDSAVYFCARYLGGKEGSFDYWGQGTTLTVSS VL: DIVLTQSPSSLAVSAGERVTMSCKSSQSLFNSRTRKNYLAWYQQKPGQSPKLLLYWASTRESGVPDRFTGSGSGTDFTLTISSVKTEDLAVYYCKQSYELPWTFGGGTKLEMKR

Ans:
0.788
0.776
0.544

FYI, the data here is from patent US20230080534A1.
